Each entry below lists one item and its recorded T/C value.
Test system: L1210 leukemia ip in BDF1 mice, survival T/C
Experiment: NCI In Vivo Anticancer Drug Screen. Data for tumor model L1210 Leukemia (intraperitoneal) in B6D2F1 (BDF1) mice
Details: endpoint: mean survival time; dose: 100.0 mg/kg/injection; schedule: Q04DX003 (ip); vehicle: saline with Tween-80; higher = longer survival
Inconclusive results and toxic doses are left out.

Below, 5 compounds whose answers are already recorded.
CCOC(=O)C12CC=CC(CCC1)C2=O (stereo unspecified) (tested in a mixture with another compound): 103 % of control
NC(=O)CCNCCSC(=O)c1ccccc1: 102 % of control
CC(=O)Cn1c(=O)oc2ccccc2c1=O: 108 % of control
CCCCCCCCCC(O)CCCC (stereo unspecified): 98 % of control
NC(=O)c1ccc[n+](CC(=O)Nc2ccccc2)c1: 101 % of control

Here is another compound to look at.
Param request: T/C | system L1210 leukemia ip in BDF1 mice, survival T/C | item O=C(Nc1ccc(I)cc1)Nc1ccc(Cl)cc1[N+](=O)[O-] 93 % of control
